Item-by-item account of IC50
# Measured target: IL-17A/F (Homo sapiens, UniProt Q16552+Q96PD4)
# Sequence (Q16552 24-155): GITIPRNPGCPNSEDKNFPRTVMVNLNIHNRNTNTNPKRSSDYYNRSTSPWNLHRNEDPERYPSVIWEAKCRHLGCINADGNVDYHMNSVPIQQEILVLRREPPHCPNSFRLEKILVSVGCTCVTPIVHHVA
# Sequence (Q96PD4 31-163): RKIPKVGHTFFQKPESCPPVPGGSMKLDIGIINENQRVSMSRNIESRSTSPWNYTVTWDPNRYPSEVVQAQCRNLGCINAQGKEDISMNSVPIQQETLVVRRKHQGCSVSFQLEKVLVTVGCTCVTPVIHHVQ
# Protocol: IL-17A/F HEK-Blue cell assay (SEAP reporter)
# Experimental conditions: HEK-Blue IL-17A reporter cells, IL17A/F 5 ng/mL, 20 hours, SEAP read at A630; read-out: HEK-Blue IL17AF (IC50 for IL-17A/F inhibition)
# Procedure: The HEK-Blue IL-17A reporter cell line (Fisher #NC 1408637) was used for cell-based IL-17A/A inhibition assays. Cells were grown and prepared for assays according to the manufacturer's instructions. […] Media from the cells is then added to a development reagent (Quanti-Blue Substrate, Fisher #NC971 1613), and read at A630. […]

Completed entries (count: 4):
Compound	IC50
CCn1nccc1C(=O)N[C@H](c1cn2nc(C[C@H]3C[C@H](C(F)(F)F)CNC3=O)c(C(C)(C)C)nc2n1)C1CCC(F)(F)CC1	> 1000 nM
CCn1nccc1C(=O)N[C@H](c1cn2nc(C[C@H]3C[C@@H](C(F)(F)F)CNC3=O)c(C(C)C(F)(F)F)nc2n1)C1CCC(F)(F)CC1 (single isomer, unassigned) [Compound 174]	100 to 1000 nM
CC(C)n1nccc1C(=O)N[C@H](c1cn2nc(CC3C[C@@H](C(F)(F)F)CNC3=O)c(N3CC4CC(C3)O4)nc2n1)[C@H]1CCCC(F)(F)C1 (single isomer, unassigned) [Compound 130]	> 1000 nM
CCn1nccc1C(=O)N[C@H](c1cn2nc(CC3C[C@@H](C(F)(F)F)CNC3=O)c(N3CC4CC(C3)O4)nc2n1)C1CCC(F)(F)CC1 (single isomer, unassigned) [Compound 81]	100 to 1000 nM

Q: Write down the reported IC50 of CCn1nccc1C(=O)N[C@H](c1cn2nc(C[C@H]3C[C@@H](C(F)(F)F)CNC3=O)c([C@@H]3CCCC(F)(F)C3)nc2n1)C1CCC(F)(F)CC1 (single isomer, unassigned) , test system: IL-17A/F (Homo sapiens, UniProt Q16552+Q96PD4).
A: < 100 nM

Q: Write down the reported IC50 of CCn1nccc1C(=O)N[C@H](c1cn2nc(C[C@H]3C[C@@H](C(F)(F)F)CNC3=O)c(C3CCOC(C)(C)C3)nc2n1)C1CCC(F)(F)CC1 (single isomer, unassigned) [Compound 163] , test system: IL-17A/F (Homo sapiens, UniProt Q16552+Q96PD4).
A: 100 to 1000 nM
